Values were extracted from patent US20160362487A1.

# Study system: T1, cynomolgus monkey IL-33 expressed with a C-terminal hexahistidine tag (cynomolgus monkey)
# T1 construct: also called MfIL-33-6His; Mf-IL-33-6His
# T1 chain: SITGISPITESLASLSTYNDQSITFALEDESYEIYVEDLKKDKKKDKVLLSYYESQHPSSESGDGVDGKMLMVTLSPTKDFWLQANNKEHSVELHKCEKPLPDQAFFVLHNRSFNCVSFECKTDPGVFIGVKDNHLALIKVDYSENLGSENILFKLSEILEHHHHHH
# Assay overview: SPR 25C pH7.4, mAb captured
Measurement label: Kd (nM)
# output: bare number, implied unit nM

Binder: H1M9568N (antibody, mouse IgG1, V domains shown, Human variable domains, mouse IgG1 Fc (H1M)) VH: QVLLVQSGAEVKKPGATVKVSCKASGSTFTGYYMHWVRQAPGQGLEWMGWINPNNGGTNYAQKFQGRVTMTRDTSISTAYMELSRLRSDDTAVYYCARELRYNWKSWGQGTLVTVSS VL: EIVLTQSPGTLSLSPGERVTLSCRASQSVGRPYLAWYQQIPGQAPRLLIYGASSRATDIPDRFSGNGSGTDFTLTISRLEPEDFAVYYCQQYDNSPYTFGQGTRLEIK
Kd, nM: 1.07

Request: Respond only with Kd recorded for H4H9629P (antibody, human IgG4, V domains shown, Human IgG4 Fc (H4H)) VH: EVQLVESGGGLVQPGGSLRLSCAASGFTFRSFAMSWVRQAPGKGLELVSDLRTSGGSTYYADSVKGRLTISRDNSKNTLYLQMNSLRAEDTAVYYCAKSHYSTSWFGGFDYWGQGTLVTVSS VL: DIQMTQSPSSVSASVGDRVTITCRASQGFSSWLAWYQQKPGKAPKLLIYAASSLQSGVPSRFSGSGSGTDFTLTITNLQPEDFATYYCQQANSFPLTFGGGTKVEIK
Response: 23.9
